# System: OVCAR-4 ovarian
# protocolDescription: NCI tumour cell line growth inhibition, 48 h
*1 amine or outer side, *2 acyl side, *3 side chain or, on linkers, in order; H or OH if unused. Where a SMILES comes first, the peptide text is derived from it. Bridges are numbered along the chain shown (N, C = ends). [ ]: non-standard residue; d: D form. The star is where a group is joined. Phe(3,5-F2) = N[C@@H](Cc1cc(F)cc(F)c1)C(=O)O; Pro(4R-Me) = C[C@H]1CN[C@H](C(=O)O)C1; aThr = C[C@H](O)[C@H](N)C(=O)O; Pip = O=C(O)[C@@H]1CCCCN1; X10 = Fc1cc(C2CC2)ccc1N*; CO = O=C([*:1])[*:2]
quantityMeasured: TGI

Entry C=C1C(=O)O[C@@H]2C(=O)[C@@H](C)CCC/C(C)=C/CC[C@@]3(C)O[C@@H]3C[C@@H]12 ; TGI = > 100 µM

Entry CC(=O)O[C@@H]1[C@H](C(C)C)[C@@H](OC(C)=O)C/C(C)=C/CC[C@]2(C)O[C@@H]12 ; TGI = > 100 µM

Entry O=C(O)CCNCCCNCCC(=O)O ; TGI = > 100 µM

Entry CN(C)C(=O)O/N=C1/C(c2c(O)[nH]c3ccccc23)=Nc2ccccc21 ; TGI = 33.1 µM

Entry C=CCO[C@H]1CO[C@H]2[C@@H]1OC[C@@H]2Oc1ccc(Nc2ccnc(Nc3ccc(O[C@H]4CO[C@H]5[C@@H]4OC[C@@H]5OCC=C)c(Cl)c3)n2)cc1Cl ; TGI = 2.93 µM

Entry O=C1/C(=C/c2ccccc2)N=C2Sc3c(nc[nH]c3=O)N12 ; TGI = > 100 µM

Entry Cc1c(C(=O)C/C(=N/NC(=O)c2ccccc2O)C(=O)Nc2ccccc2C(C)C)[n+](=O)c2ccccc2n1[O-] ; TGI = > 100 µM

Entry Cc1ccccc1C(=O)N1CCc2c([nH]c3ccccc23)C1 ; TGI = 74.9 µM

Entry CCOC1Oc2ccccc2C(=O)/C1=C/Nc1ccc(C(C)=O)cc1 (stereo not drawn) ; TGI = > 100 µM

Entry O=[N+]([O-])c1ccc2c(c1)/C(=N/N=C1c3ccccc3Cc3ccccc31)c1cc([N+](=O)[O-])cc([N+](=O)[O-])c1-2 ; TGI = 3.13 µM

Entry C=CCN1C[C@H](C)N([C@H](c2ccc(C(=O)NC(CC)CC)cc2)c2cccc(OC)c2)C[C@H]1C ; TGI = > 100 µM

Entry Cc1ccc2c(C)c3c(ccc4ccccc43)c[n+]2c1 ; TGI = 41.7 µM

Entry CCOC(=O)C(C)(C)Oc1ccc2c(-c3ccccc3)cc(=O)oc2c1 ; TGI = > 100 µM

Entry COC(=O)c1ccccc1NC(=O)C(=O)Cc1nc2c3c(ccc2[nH]c1=O)C(=O)c1ccccc1C3=O ; TGI = 98 µM

Entry Fc1ccc(NC(=S)SCc2ccc3c(c2)OCO3)cc1F ; TGI = > 100 µM

Entry N#Cc1c(-c2ccccc2)/c(=C\Nc2cccc(C(F)(F)F)c2)c(=O)n2c1nc1ccccc12 ; TGI = > 100 µM

Entry COc1ccc(-c2cc(O)c3nc4ccccc4n3c2)cc1 ; TGI = > 100 µM

Entry O=C1CC(NC(=O)C(F)(F)F)c2c(Br)sc(N3CCNCC3)c21 (stereo not drawn) ; TGI = > 100 µM

Entry COC(=O)C1SC(SC)=NC12c1ccccc1Nc1ccccc12 (stereo not drawn) ; TGI = > 100 µM

Entry COC(=O)c1ccccc1CC1Cc2ccc3c(c2C1=O)CCCC3 (stereo not drawn) ; TGI = > 79.4 µM

Entry CCC(C(=O)O)c1ccc(OC)cc1 (stereo not drawn) ; TGI = > 100 µM

Entry O=C(CCN1CCCCC1)C(=Cc1ccccc1)C(=O)CCN1CCCCC1 ; TGI = > 100 µM

Entry C[C@@H]1C[C@H]2C(=O)O[C@@H](C)[C@H](NC(=O)[C@H](Cc3cc(F)cc(F)c3)NC(=O)Nc3ccc(C4CC4)cc3F)C(=O)N3CCC[C@H]3C(=O)N3CCCC[C@H]3C(=O)N[C@@H](C)C(=O)N2C1 ({X10-CO}-[Phe(3,5-F2)][aThr]P[Pip]A[Pro(4R-Me)]; ester 2-C) ; TGI = 3.84 µM

Entry CCN(CC)N=Nc1c(C(N)=O)n[nH]c1C ; TGI = > 100 µM

Entry CCC[CH2][Sn]([CH2]CCC)([S]c1cccc2cccnc12)[S]c1cccc2cccnc12 ; TGI = 0.307 µM

Entry CC(C)(C)N1CSC(=S)N(Cc2ccco2)C1 ; TGI = 26.7 µM

Entry COc1cccc(C2c3cc4c(cc3OC(C)(N3CCCC3)C2C)OCO4)c1O (stereo not drawn) ; TGI = > 100 µM

Entry COc1cc2c(c(OC)c1OC)-c1ccc(NNC(N)=S)c(=O)cc1[C@@H](NC(C)=O)CC2 ; TGI = > 100 µM

Entry COc1ccc(-c2c(C#N)c(-c3ccc(C)cc3)n(NS(=O)(=O)c3ccc(C)cc3)c(=O)c2C#N)cc1 ; TGI = > 100 µM

Entry C1CN(c2nc3c(nnc4nc(N5CCOCC5)sc43)s2)CCO1 ; TGI = > 100 µM

Entry C=CC1(C)CCC2C(=CCC3C2(C)CC(O)C(O)C3(C)COC2OC(C(=O)O)C(O)C(O)C2O)C1 (stereo not drawn) (tested in a mixture with another compound) ; TGI = > 100 µM

Entry COC(=O)/C=C1\S/C(=N\NC(=O)c2cc3ccc2/C=C\c2ccc(cc2)/C=C\3)N(c2ccccc2)C1=O ; TGI = 9.88 µM

Entry NC1=NCCC1(c1ccccc1)c1ccccn1 (stereo not drawn) ; TGI = > 100 µM

Entry Nc1nc(SCCc2ccccc2)c2[nH]cnc2n1 ; TGI = > 100 µM

Entry CCN1/C(=C\c2cc[n+](CC)c3ccccc23)C=Cc2ccccc21 ; TGI = 12.2 µM

Entry c1ccc(N=c2sc3ccccc3nc2Nc2ccccc2)cc1 ; TGI = > 100 µM

Entry Nc1nc(Cl)cc(NCC2(CO)CC(=O)C2)n1 ; TGI = > 100 µM

Entry COC1/C=C/OC2(C)Oc3c(C)c(O)c4c(O)c(c(/C=N/Nc5ccc([N+](=O)[O-])cc5[N+](=O)[O-])c(O)c4c3C2=O)NC(=O)C(C)=C/C=C/C(C)C(O)C(C)C(O)C(C)C(OC(C)=O)C1C (stereo not drawn) ; TGI = > 50 µM
